- measured on: human MR (mineralocorticoid receptor) (Homo sapiens, UniProt P08235)
- Construct: expressed in transfected cells; host or cells: HEK293
- Sequence (P08235 whole entry): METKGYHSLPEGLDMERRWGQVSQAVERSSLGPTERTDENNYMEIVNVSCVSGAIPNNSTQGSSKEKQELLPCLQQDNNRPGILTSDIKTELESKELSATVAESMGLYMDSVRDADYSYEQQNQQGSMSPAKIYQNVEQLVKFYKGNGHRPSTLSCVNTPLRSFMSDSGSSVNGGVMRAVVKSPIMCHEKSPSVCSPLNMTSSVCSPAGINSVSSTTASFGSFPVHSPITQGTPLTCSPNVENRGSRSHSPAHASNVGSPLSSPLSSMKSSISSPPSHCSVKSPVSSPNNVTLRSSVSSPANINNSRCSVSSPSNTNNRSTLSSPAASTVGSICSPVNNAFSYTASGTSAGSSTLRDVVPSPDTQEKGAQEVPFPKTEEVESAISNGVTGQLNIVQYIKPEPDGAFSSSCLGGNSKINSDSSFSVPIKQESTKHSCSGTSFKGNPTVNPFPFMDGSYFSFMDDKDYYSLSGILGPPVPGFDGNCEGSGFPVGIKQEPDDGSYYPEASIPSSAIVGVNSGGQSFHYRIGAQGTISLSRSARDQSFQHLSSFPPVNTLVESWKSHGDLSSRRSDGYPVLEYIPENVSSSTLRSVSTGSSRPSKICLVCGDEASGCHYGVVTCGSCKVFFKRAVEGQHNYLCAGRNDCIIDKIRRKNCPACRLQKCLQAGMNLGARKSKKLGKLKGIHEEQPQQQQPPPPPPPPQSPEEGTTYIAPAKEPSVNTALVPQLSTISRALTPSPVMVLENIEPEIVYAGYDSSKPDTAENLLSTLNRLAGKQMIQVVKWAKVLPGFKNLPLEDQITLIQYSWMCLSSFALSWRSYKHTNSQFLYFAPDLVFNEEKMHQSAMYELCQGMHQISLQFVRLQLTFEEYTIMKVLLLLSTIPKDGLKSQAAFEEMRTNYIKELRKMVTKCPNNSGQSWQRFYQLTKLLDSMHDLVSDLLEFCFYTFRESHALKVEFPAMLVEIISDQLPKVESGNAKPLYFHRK
- measurement notes: Steroid hormone nuclear receptor binding assay, MR
- measurement parameters: HEK293 lysate, [3H]-aldosterone
Parameter: Ki. Scope: all listed entries.
endpoint name: Ki (nM)

[
  {
    "molecule": "CCc1c(NC2CCOCC2(C)O)ccc(C#N)c1Cl (single isomer, unassigned; diastereomer 2)",
    "measured on": "human MR (mineralocorticoid receptor) (Homo sapiens, UniProt P08235)",
    "endpoint name": "Ki",
    "relational operator": "=",
    "observed measurement": 3960
  },
  {
    "molecule": "Cc1c(N[C@H]2CC[C@H](O)[C@]2(C)O)ccc(C#N)c1Cl (single isomer, unassigned)",
    "measured on": "human MR (mineralocorticoid receptor) (Homo sapiens, UniProt P08235)",
    "endpoint name": "Ki",
    "relational operator": ">",
    "observed measurement": 7150
  }
]
